system: 556581-035-R-J1-PDC spheroids with HUVEC/MSC, viability; assay: Anticancer human tumor 556581-035-R-J1-PDC patient-derived ovarian carcinoma cell line growth inhibition [IpAb]; conditions: second compound 0.1 µM; first compound 0.949 µM; active = viability on the fitted dose curve at most 10% of control; inactive = the rest
# output must be one of True = active, False = inactive

Example cases with answers are listed next.
Cn1cnc2c(F)c(Nc3ccc(Br)cc3Cl)c(C(=O)NOCCO)cc21 + CCN1CCN(Cc2ccc(Nc3ncc(F)c(-c4cc(F)c5nc(C)n(C(C)C)c5c4)n3)nc2)CC1 :: False
CC(C)(C)c1cnc(CSc2cnc(NC(=O)C3CCNCC3)s2)o1 + CCN1CCN(Cc2ccc(Nc3ncc(F)c(-c4cc(F)c5nc(C)n(C(C)C)c5c4)n3)nc2)CC1 :: True
Cn1cnc2c(F)c(Nc3ccc(Br)cc3Cl)c(C(=O)NOCCO)cc21 + CC(C)NCC(C(=O)N1CCN(c2ncnc3c2C(C)CC3O)CC1)c1ccc(Cl)cc1 :: False

Consider now this further compound.
Identify the outcome logged in this assay for the compound shown: CC(C)(C)c1cnc(CSc2cnc(NC(=O)C3CCNCC3)s2)o1 + CC(C)NCC(C(=O)N1CCN(c2ncnc3c2C(C)CC3O)CC1)c1ccc(Cl)cc1
True

---

Entries annotated with measured IC50
tested on: 556581-035-R-J1-PDC spheroids with HUVEC/MSC, viability; assay: Anticancer human tumor 556581-035-R-J1-PDC cell line growth inhibition [IpAb]; conditions: curve of first compound; second compound 10 µM;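 note: spheroids exposed to compounds for 7 days before readout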

The examples below pair each entry with its known result.
Cn1ncc(Cl)c1-c1cc(C(=O)NC(CN)Cc2cccc(F)c2)sc1Cl (centres undefined) + CC(C)NCC(C(=O)N1CCN(c2ncnc3c2C(C)CC3O)CC1)c1ccc(Cl)cc1 :: 1.19 µM
CC(=O)c1c(C)c2cnc(Nc3ccc(N4CCNCC4)cn3)nc2n(C2CCCC2)c1=O + CC(C)NCC(C(=O)N1CCN(c2ncnc3c2C(C)CC3O)CC1)c1ccc(Cl)cc1 :: < 0.000949 µM
CC(C)n1nc(-c2ccc3oc(N)nc3c2)c2c(N)ncnc21 + CC(C)NCC(C(=O)N1CCN(c2ncnc3c2C(C)CC3O)CC1)c1ccc(Cl)cc1 :: < 0.000316 µM

Please report the recorded IC50 for C=CCn1c(=O)c2cnc(Nc3ccc(N4CCN(C)CC4)cc3)nc2n1-c1cccc(C(C)(C)O)n1 + CC(C)NCC(C(=O)N1CCN(c2ncnc3c2C(C)CC3O)CC1)c1ccc(Cl)cc1 .
< 0.0316 µM

---

tested on: 556581-035-R-J1-PDC spheroids with HUVEC/MSC, viability; experiment: Anticancer human tumor 556581-035-R-J1-PDC cell line growth inhibition [IpAb]; conditions: second compound 0.316 µM; first compound 10 µM; stronger effect = lower value;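 note: spheroids exposed to compounds for 7 days before readout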
Entries and their viability, T/C
State the answer as a number, implicitly in %.

Tell me the measured viability, T/C of Cn1ncc(Cl)c1-c1cc(C(=O)NC(CN)Cc2cccc(F)c2)sc1Cl (stereo unspecified) + CC(C)NCC(C(=O)N1CCN(c2ncnc3c2C(C)CC3O)CC1)c1ccc(Cl)cc1 , please.
0.21

What does the data say about its viability, T/C? Entry: Cn1nccc1Nc1nccc(-c2ccn(C(CO)c3ccc(Cl)c(F)c3)c(=O)c2)n1 (stereo unspecified) + CC(C)NCC(C(=O)N1CCN(c2ncnc3c2C(C)CC3O)CC1)c1ccc(Cl)cc1
13.2

So what does the record say about viability, T/C for Cn1nccc1Nc1nccc(-c2ccn(C(CO)c3ccc(Cl)c(F)c3)c(=O)c2)n1 (stereo unspecified) + CCN1CCN(Cc2ccc(Nc3ncc(F)c(-c4cc(F)c5nc(C)n(C(C)C)c5c4)n3)nc2)CC1 ?
37.9

GET /values?readout=viability, T/C&item= CCCS(=O)(=O)Nc1ccc(F)c(C(=O)c2c[nH]c3ncc(-c4ccc(Cl)cc4)cc23)c1F + CC(C)NCC(C(=O)N1CCN(c2ncnc3c2C(C)CC3O)CC1)c1ccc(Cl)cc1
59.9

Which viability, T/C reading was recorded for the compound C=CCn1c(=O)c2cnc(Nc3ccc(N4CCN(C)CC4)cc3)nc2n1-c1cccc(C(C)(C)O)n1 + CC(C)NCC(C(=O)N1CCN(c2ncnc3c2C(C)CC3O)CC1)c1ccc(Cl)cc1 ?
27.5
